biological target: Thromboxane A2 receptor (Homo sapiens); experiment: Compound was evaluated for its secondary binding affinity to human TP receptors by using Aequorin luminescence-based functional calcium assay
Sequence (P21731 whole entry): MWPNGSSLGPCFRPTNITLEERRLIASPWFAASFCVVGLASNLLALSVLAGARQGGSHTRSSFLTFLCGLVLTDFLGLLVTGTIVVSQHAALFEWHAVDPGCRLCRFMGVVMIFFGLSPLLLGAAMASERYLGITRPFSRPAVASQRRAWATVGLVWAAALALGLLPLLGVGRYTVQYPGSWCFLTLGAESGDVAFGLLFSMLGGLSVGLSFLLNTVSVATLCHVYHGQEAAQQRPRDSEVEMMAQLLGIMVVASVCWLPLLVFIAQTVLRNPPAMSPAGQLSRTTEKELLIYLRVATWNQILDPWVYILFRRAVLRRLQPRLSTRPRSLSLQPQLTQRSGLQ
pKi: −log10 of the molar value.
attribute-measured: pKi

{"columns": ["compound", "attribute-measured", "numeric-result"],
 "data": [
  ["CC(C)(Cc1ccccc1)C(=O)NS(=O)(=O)c1ccccc1-c1ccc(CN2C(=O)c3ccccc3CCc3ccccc32)cc1", "pKi", 5.96],
  ["CC(C)(C(=O)NS(=O)(=O)c1ccccc1-c1ccc(CN2C(=O)c3ccccc3CCc3ccccc32)cc1)c1ccccc1", "pKi", 5.52],
  ["CC(C(=O)NS(=O)(=O)c1ccccc1-c1ccc(CN2C(=O)c3ccccc3CCc3ccccc32)cc1)c1ccccc1 (stereo not given)", "pKi", 5.55],
  ["CN(CCc1ccccc1)C(=O)NS(=O)(=O)c1ccccc1-c1ccc(CN2C(=O)c3ccccc3CCc3ccccc32)cc1", "pKi", 5.68],
  ["CO[C@](C(=O)NS(=O)(=O)c1ccccc1-c1ccc(CN2C(=O)c3ccccc3CCc3ccccc32)cc1)(c1ccccc1)C(F)(F)F", "pKi", 5.82]
]}

----------
Entries annotated with measured pKi
target: Prostaglandin E2 receptor EP2 subtype (Homo sapiens, UniProt P43116); assay: Affinity at human EP2 receptor.
Sequence (P43116 whole entry): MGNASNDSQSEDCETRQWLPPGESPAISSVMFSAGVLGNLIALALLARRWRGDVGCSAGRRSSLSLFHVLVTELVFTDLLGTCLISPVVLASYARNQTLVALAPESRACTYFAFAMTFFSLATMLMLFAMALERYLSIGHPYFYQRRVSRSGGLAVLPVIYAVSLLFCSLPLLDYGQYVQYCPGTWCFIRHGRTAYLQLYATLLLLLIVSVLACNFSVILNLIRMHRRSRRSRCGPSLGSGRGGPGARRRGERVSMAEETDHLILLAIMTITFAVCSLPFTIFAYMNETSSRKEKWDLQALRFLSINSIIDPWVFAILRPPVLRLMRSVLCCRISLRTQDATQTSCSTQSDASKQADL
pKi: −log10 of the molar value.
attribute-measured: pKi

{"columns": ["structure-string", "result"],
 "data": [
  ["O=C(NCCc1ccccc1)NS(=O)(=O)c1ccccc1-c1ccc(CN2C(=O)c3ccccc3CCc3ccccc32)cc1", "< 4.00"],
  ["O=C(NCCc1cccs1)NS(=O)(=O)c1ccccc1-c1ccc(CN2C(=O)c3ccccc3CCc3ccccc32)cc1", "< 4.00"],
  ["O=C1c2ccccc2CCc2ccccc2N1Cc1ccc(-c2ccccc2S(=O)(=O)N(Cc2ccccc2)C(=O)NCCc2ccccc2)cc1", "< 4.00"]
]}

# credit: ChEMBL document CHEMBL1131980
